The reported numbers originate from patent US20110293610A1.

measurement target: T1, TNF-alpha (human, UniProt P01375 77-233)
T1 construct: also called TNFα; TNF-α
T1 sequence (P01375 77-233 limits assumed): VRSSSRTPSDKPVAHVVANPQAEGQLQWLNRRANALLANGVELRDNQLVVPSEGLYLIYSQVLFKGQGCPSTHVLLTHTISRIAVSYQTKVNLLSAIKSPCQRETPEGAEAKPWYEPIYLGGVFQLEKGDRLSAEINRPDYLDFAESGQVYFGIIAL
assay details: phage ELISA

binder	binding result
I016H07 (scFv) scFv: GVQLVQSGAEVKKPGASVKVSCKASGYTFTHYAINWLRQAPGQRPEWMGTINTGNGNTKYSQNFQGRLTITRDTSASTVNMELSSLRSEDTAVYYCAGGYHDPLTSYNYNWFDPWGQGTMVTVSSGGGGSGGGGSGGGGSSELTQDPAVSVALGQTVRITCQGDSLRSYYTNWFQQKPGQAPLLVVYAKNKRPSGIPDRFSGSSSGNTASLTITGAQAEDEADYYCHSRDSSGNHVLFGGGTKLTVLG	no binding
I068C08 (scFv) scFv: QVQLQQSGAEVKKPGSSVKVSCQASGGSFSREGISWVRQAPGHGLEWMGRIIPVLGVADYAQKFQGRVKISVDRLTSVAYMELTSLRFEDTAVYYCAREGMNDFINSHHYYTMDAWGQGTLVTVSSGGGGSGGGGSGGGGSAQAVLTQPSSVSGAPGQRVTISCTGSSSNIGAGYDVHWYQQLPGTAPKLLIYGNSNRPSGVPDRFSGSKSGTSASLAITGLQAEDEADYYCQSYDSSLSGSVFGGGTKLTVLG	no binding
I028A06 (scFv) scFv: QVQLVESGGGLIQPGGSLRLSCAASGFSFGSYAMSWIRQAPGKGLEWVSTSTGRGGSTYYADSVKGRFTISRDNAKNSLYLQMNSLRAEDAAVYYCARGGDYDILTGLYYYGMDVWGKGTMVTVSSGGGGSGGGGSGGGGSSYVLTQPPSVSGTPGQRVTISCSGGRSNIGSNTVKWYQQLPGTAPKLLIYGNDQRPSGVPDRFSGSKSGTSASLAITGVQAEDEADYYCQSYDSSLRGSRVFGTGTKVTVLG	no binding
